# Tested on: SK-MEL-28
# assayProtocol: SRB colorimetric cell growth inhibition assay, SK-MEL-28
# Type: cell-based
# testContext: Homo sapiens, SK-MEL-28, MEL-28; GI=growth inhibition; read-out: GI50 MEL-28
The entries below are paired with their reported GI50.
Answer with a number only, understood to be in µM.

// known answers, use as guide
compound	reading
CC[C@H](C)[C@H](N)C(=O)Oc1ccc(-c2c3c4cc(OC)c(OC(=O)[C@@H](N)[C@@H](C)CC)cc4oc(=O)c3n3ccc4cc(OC(=O)[C@@H](N)[C@@H](C)CC)c(OC)cc4c23)cc1OC [Compound 209]	0.0328
COc1cc2c(cc1OC)-c1c(-c3ccc(OC(=O)[C@H](Cc4ccccc4)NC(=O)OC(C)(C)C)c(OC)c3)c3c4cc(OC)c(OC(=O)[C@H](Cc5ccccc5)NC(=O)OC(C)(C)C)cc4oc(=O)c3n1CC2 [Compound 84]	2.07

Dear colleague, I am looking for the recorded GI50 of the following compound: COc1cc(-c2c3c4cc(OC)c(OC(=O)CCc5ccccc5)cc4oc(=O)c3n3ccc4cc(OC(=O)CCc5ccccc5)c(OC)cc4c23)ccc1OC(=O)CCc1ccccc1 [Compound 8] 0.407

---

# Tested on: LoVo-Dox
# assayProtocol: SRB colorimetric cell growth inhibition assay, LoVo-Dox (MDR)
# Assay type: cell-based
# testContext: Homo sapiens, LOVO-DOX; GI=growth inhibition; read-out: GI50 LOVO-DOX
assayEndpoint: GI50 (µM)
Answer with a number only, understood to be in µM.

// known answers, use as guide
>>> print(df.to_string())
                                 testsmiles  targetorsystem  assayendpoint  reading
0  COc1cc(-c2c3c4cc(OC)c(OC(=O)[C@H](C)N)cc4oc(=O)c3n3ccc4c(OC(=O)[C@H](C)N)c(OC)c(OC)cc4c23)ccc1OC(=O)[C@H](C)N        LoVo-Dox           GI50     0.42
1  COc1cc2ccn3c(c(-c4ccc(OS(=O)(=O)C(F)(F)F)c(OC)c4)c4c5cc(OC)c(OS(=O)(=O)C(F)(F)F)cc5oc(=O)c43)c2cc1OC        LoVo-Dox           GI50     12.9

Okay, next one:
What GI50 appears in the records for this molecule with LoVo-Dox? "COc1cc(-c2c3c4cc(OC)c(OC(=O)CCC5CCCCC5)cc4oc(=O)c3n3ccc4cc(OC(=O)CCC5CCCCC5)c(OC)cc4c23)ccc1OC(=O)CCC1CCCCC1" 10.9

---

# Tested on: A-549
# assayProtocol: SRB colorimetric cell growth inhibition assay, A-549
# Type: cell-based
# testContext: A-549; cell killing (cytotoxic effect); read-out: LC50 A-549
The entries below are paired with their reported CC50.
Answer with a number only, understood to be in µM.

// known answers, use as guide
molecule	targetOrSystem	CC50, µM
COc1cc(-c2c3n(c4c(=O)oc5cc(OS(C)(=O)=O)c(OC)cc5c24)CCc2cc(OS(C)(=O)=O)c(OC)cc2-3)ccc1OS(C)(=O)=O	A-549	13.6
COc1cc(-c2c3c4cc(OC)c(OC(=O)[C@H](C)N)cc4oc(=O)c3n3ccc4c(OC(=O)[C@H](C)N)c(OC)c(OC)cc4c23)ccc1OC(=O)[C@H](C)N [Compound 191]	A-549	11.7

Okay, next one:
Dear colleague, I am looking for the recorded CC50 of the following molecule: COc1cc(-c2c3c4cc(OC)c(OC(=O)[C@H](C)N)cc4oc(=O)c3n3ccc4c(OC(=O)[C@H](C)N)c(OC)c(OC)cc4c23)ccc1OC(=O)[C@H](C)N [Compound 16] 3.05

---

The entries below are paired with their reported GI50.
# System: LoVo-Dox
# assayProtocol: SRB colorimetric cell growth inhibition assay, LoVo-Dox (MDR)
# Type: cell-based
# testContext: Homo sapiens, LOVO-DOX; GI=growth inhibition; read-out: GI50 LOVO-DOX
Answer with a number only, understood to be in nM.

// known answers, use as guide
compound	reading
COc1cc(-c2c3n(c4c(=O)oc5cc(OC(=O)[C@H](C)NC(=O)[C@H](C)NC(=O)OC(C)(C)C)c(OC)cc5c24)CCc2cc(OC(=O)[C@H](C)NC(=O)[C@H](C)NC(=O)OC(C)(C)C)c(OC)cc2-3)ccc1OC(=O)[C@H](C)NC(=O)[C@H](C)NC(=O)OC(C)(C)C	3660
COc1cc(-c2c3n(c4c(=O)oc5cc(OC(=O)[C@@H]6CCCN6)c(OC)cc5c24)CCc2cc(OC(=O)[C@@H]4CCCN4)c(OC)cc2-3)ccc1OC(=O)[C@@H]1CCCN1	519
COc1cc(-c2c3n(c4c(=O)oc5cc(OC(=O)[C@H](CO)NC(=O)OC(C)(C)C)c(OC)cc5c24)CCc2c-3cc(OC)c(OC)c2OC(=O)[C@H](CO)NC(=O)OC(C)(C)C)ccc1OC(=O)[C@H](CO)NC(=O)OC(C)(C)C	2820

Dear colleague, I am looking for the recorded GI50 of the following compound: COc1cc(-c2c3c4cc(OC)c(O)cc4oc(=O)c3n3ccc4cc(O)c(OC)cc4c23)ccc1O [Compound 3, lamellarin D, reference compound] 420

Dear colleague, I am looking for the recorded GI50 of the following compound: "COc1cc(-c2c3c4cc(OC)c(OC(=O)[C@@H](N)CCCCNC(=O)OCc5ccccc5)cc4oc(=O)c3n3ccc4c(OC(=O)[C@@H](N)CCCCNC(=O)OCc5ccccc5)c(OC)c(OC)cc4c23)ccc1OC(=O)[C@@H](N)CCCCNC(=O)OCc1ccccc1" 608

Dear colleague, I am looking for the recorded GI50 of the following compound: "COc1cc2c(cc1O)CCn1c-2cc2c3cc(OC)c(O)cc3oc(=O)c21" 517

Dear colleague, I am looking for the recorded GI50 of the following compound: "COc1cc(-c2c3n(c4c(=O)oc5cc(OC(=O)c6cc(F)c(F)c(F)c6F)c(OC)cc5c24)CCc2c-3cc(OC)c(OC)c2OC(=O)c2cc(F)c(F)c(F)c2F)ccc1OC(=O)c1cc(F)c(F)c(F)c1F" 9440

Dear colleague, I am looking for the recorded GI50 of the following compound: "COc1cc2ccn3c(c(-c4ccc(OC(=O)[C@@H](N)C(C)C)c(OC)c4)c4c5cc(OC)c(OC(=O)[C@@H](N)C(C)C)cc5oc(=O)c43)c2cc1OC" 874

Dear colleague, I am looking for the recorded GI50 of the following compound: "COc1cc2ccn3c(c(-c4ccc(OC(=O)[C@@H](N)Cc5ccccc5)c(OC)c4)c4c5cc(OC)c(OC(=O)[C@@H](N)Cc6ccccc6)cc5oc(=O)c43)c2cc1OC" 1080

Dear colleague, I am looking for the recorded GI50 of the following compound: "C=CCOC(=O)N[C@@H](C)C(=O)Oc1ccc(-c2c3c4cc(OC)c(OC(=O)[C@H](C)NC(=O)OCC=C)cc4oc(=O)c3n3ccc4cc(OC(=O)[C@H](C)NC(=O)OCC=C)c(OC)cc4c23)cc1OC" 2430

Dear colleague, I am looking for the recorded GI50 of the following compound: "COc1cc(-c2c3c4cc(OC)c(OC(C)C)cc4oc(=O)c3n3ccc4c(OC(C)C)c(OC)c(OC)cc4c23)ccc1OC(C)C" 15200

Dear colleague, I am looking for the recorded GI50 of the following compound: "COc1cc(-c2c3n(c4c(=O)oc5cc(OC(=O)[C@@H](N)C(C)C)c(OC)cc5c24)CCc2c-3cc(OC)c(OC)c2OC(=O)[C@@H](N)C(C)C)ccc1OC(=O)[C@@H](N)C(C)C" 403

Dear colleague, I am looking for the recorded GI50 of the following compound: "COc1cc2ccn3c(c(-c4ccc(OC(=O)[C@@H](NC(=O)OC(C)(C)C)C(C)C)c(OC)c4)c4c5cc(OC)c(OC(=O)[C@@H](NC(=O)OC(C)(C)C)C(C)C)cc5oc(=O)c43)c2cc1OC" 11000

---

# Test system: HT-29
# assayProtocol: SRB colorimetric cell growth inhibition assay, HT-29
# Assay type: cell-based
# testContext: Homo sapiens, HT-29, HT-29; total growth inhibition (cytostatic effect); read-out: TGI HT-29
assayEndpoint: IC (TGI) (µM)
Answer with a number only, understood to be in µM.

compound	reading
COc1cc(-c2c3c4cc(OC)c(OC(=O)[C@H](C)N)cc4oc(=O)c3n3ccc4cc(OC(=O)[C@H](C)N)c(OC)cc4c23)ccc1OC(=O)[C@H](C)N [Compound 199]	6.71

Dear colleague, I am looking for the recorded IC (TGI) of the following compound: COc1cc2c(cc1O)oc(=O)c1c2c(-c2ccc(OC)c(OC)c2)c2c3cc(OC)c(O)cc3ccn21 [Compound 233] 19.5

Dear colleague, I am looking for the recorded IC (TGI) of the following compound: COc1cc(-c2c3n(c4c(=O)oc5cc(OC(=O)[C@H](C)N)c(OC)cc5c24)CCc2c-3cc(OC)c(OC)c2OC(=O)[C@H](C)N)ccc1OC(=O)[C@H](C)N [Compound 96] 9.2
